target: CDK1/CyclinB (Homo sapiens); experiment: ADP Glo kinase assay, CDK1/CyclinB; type: biochemical; settings: compound at 1 μM, read-out: Residual enzymatic activity (%) at 1 μM, CDK1 B
Sequence (P06493 whole entry, species assumed): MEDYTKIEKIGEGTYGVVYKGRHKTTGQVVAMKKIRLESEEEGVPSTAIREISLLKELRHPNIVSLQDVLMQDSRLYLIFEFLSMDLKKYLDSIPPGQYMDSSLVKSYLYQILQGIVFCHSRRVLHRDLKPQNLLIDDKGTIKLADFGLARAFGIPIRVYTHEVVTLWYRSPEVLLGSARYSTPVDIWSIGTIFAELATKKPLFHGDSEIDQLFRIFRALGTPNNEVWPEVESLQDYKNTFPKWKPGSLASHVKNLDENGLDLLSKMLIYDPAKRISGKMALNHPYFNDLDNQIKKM
Sequence (P14635 whole entry partner, species assumed): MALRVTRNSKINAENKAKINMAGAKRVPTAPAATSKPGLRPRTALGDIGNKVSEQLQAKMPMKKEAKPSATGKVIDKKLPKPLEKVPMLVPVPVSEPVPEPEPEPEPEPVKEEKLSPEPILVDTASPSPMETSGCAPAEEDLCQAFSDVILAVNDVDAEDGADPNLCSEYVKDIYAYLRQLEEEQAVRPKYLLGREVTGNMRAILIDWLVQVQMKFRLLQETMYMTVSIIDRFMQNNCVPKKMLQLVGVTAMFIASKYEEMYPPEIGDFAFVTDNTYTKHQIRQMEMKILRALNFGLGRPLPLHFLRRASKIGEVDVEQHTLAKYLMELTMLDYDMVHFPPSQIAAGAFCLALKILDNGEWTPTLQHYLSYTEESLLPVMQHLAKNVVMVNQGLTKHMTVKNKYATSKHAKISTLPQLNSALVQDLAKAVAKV
Recorded remaining activity at 1 µM for the following compounds
Report the figure in % without appending any unit label.

CN1CCN(Cc2ccc(Nc3nccc(-c4cnc5ccc(-c6ccccc6)cn45)n3)cn2)CC1 [Compound 78]
99
CC(C)N1CCN(c2ccc(Nc3nccc(-c4cnc5ccc(-c6ccc(F)nc6)cn45)n3)cn2)CC1 [Compound 55]
50

// field: remaining activity at 1 µM; key: O=C(NC1CC1)c1ccc(Nc2ncc(F)c(-c3cnc4ccc(-c5ccccc5)cn34)n2)cn1 [Compound 33] ; value = 59

// sample CN(C)c1ccc(Nc2nccc(-c3cnc4ccc(C5=CCN(C(=O)OC(C)(C)C)CC5)cn34)n2)cn1 [Compound 67] , its remaining activity at 1 µM was 67

For record O=C1NCCC12CCN(c1ccc(Nc3nccc(-c4cnc5ccc(-c6cnn(C(F)F)c6)cn45)n3)cn1)CC2 [Compound 73] the listed remaining activity at 1 µM is 73

Recorded remaining activity at 1 µM (compound CS(=O)(=O)N1CCN(c2ccc(Nc3nccc(-c4cnc5ccc(-c6ccc(F)nc6)cn45)n3)cn2)CC1 [Compound 56] ): 78

The measured remaining activity at 1 µM associated with CC(C)N1CCN(c2ccc(Nc3nccc(-c4cnc5ccc(-c6ccsc6)cn45)n3)cn2)CC1 [Compound 54] reads 32

Data point: Fc1cnc(Nc2ccc(Cl)nc2)nc1-c1cnc2ccc(-c3ccccc3)cn12 [Compound 34] ; remaining activity at 1 µM = 100

The compound listed as COc1ccc(-c2ccc3ncc(-c4ccnc(Nc5ccc(N6CCN(C)CC6)nc5)n4)n3c2)cn1 [Compound 43] shows remaining activity at 1 µM equal to 67

Recorded result, CC(=O)N1CCN(c2ccc(Nc3nccc(-c4cnc5ccccn45)n3)cn2)CC1 [Compound 41] , remaining activity at 1 µM: 31

Record CC(=O)N1CCN(c2ccc(Nc3nccc(-c4cnc5ccc(-c6ccccc6)cn45)n3)cn2)CC1 [Compound 45] . Reported remaining activity at 1 µM: 60

So, CS(=O)(=O)N1CCN(c2ccc(Nc3nccc(-c4cnc5ccc(-c6cc7ccccc7o6)cn45)n3)cn2)CC1 [Compound 52] ? Its remaining activity at 1 µM was 62

Documented remaining activity at 1 µM of CN(C)c1ccc(Nc2nccc(-c3cnc4ccc(Br)cn34)n2)cn1 [Compound 65] : 56

Lab note: CC(C)N1CCN(c2ccc(Nc3nccc(-c4cnc5ccc(-c6ccncc6)cn45)n3)cn2)CC1 [Compound 40] gave remaining activity at 1 µM of 41

The compound CN1CCN(c2ccc(Nc3nccc(-c4cnc5ccc(-c6cccnc6)cn45)n3)nc2)CC1 [Comparator compound C, reference compound] showed remaining activity at 1 µM equal to 67

// remaining activity at 1 µM value for CCCNc1ccc(Nc2nccc(-c3cnc4ccc(Br)cn34)n2)cn1 [Compound 74] : 82

// recorded remaining activity at 1 µM for COC(=O)c1ccc(Nc2nccc(-c3cnc4ccc(Br)cn34)n2)cn1 [Compound 82] : 90

The value of remaining activity at 1 µM measured for the compound CC(=O)N1CCN(c2ccc(Nc3ncc(C)c(-c4cnc5ccccn45)n3)cn2)CC1 [Compound 11] turned out to be 54

Lookup result for CN(C)c1ccc(Nc2nccc(-c3cnc4ccc(-c5ccc(F)nc5)cn34)n2)cn1 [Compound 68] ; measured remaining activity at 1 µM: 37

For record COc1cc(F)cc(-c2ccc3ncc(-c4ccnc(Nc5ccc(N6CCN(C)CC6)nc5)n4)n3c2)c1 [Compound 64] the listed remaining activity at 1 µM is 57

The measured remaining activity at 1 µM associated with O=C1NCCC12CCN(c1ccc(Nc3nccc(-c4cnc5ccc(-c6ccccc6)cn45)n3)cn1)CC2 [Compound 72] reads 75

Noted for c1ccc(-c2ccc3ncc(-c4ccnc(Nc5ccc(NC6CCOCC6)nc5)n4)n3c2)cc1 [Compound 58] : its remaining activity at 1 µM reads 77

What the record says about CCOc1ccc(Nc2ncc(F)c(-c3cnc4ccc(-c5ccccc5)cn34)n2)cn1 [Compound 31] : remaining activity at 1 µM is 97

Entry under test: CN1CCN(c2ccc(Nc3ncc(F)c(-c4cnc5ccc(-c6ccccc6)cn45)n3)cn2)CC1 [Compound 28] . Its remaining activity at 1 µM was 61

For this compound ( Cc1cnc(Nc2ccc(N3CCN(C)CC3)nc2)nc1-c1cnc2ccc(-c3ccccc3)cn12 [Compound 50] ), measured remaining activity at 1 µM is 91

So for O=C(c1ccco1)N1CCN(c2ccc(Nc3nccc(-c4cnc5ccc(-c6ccccc6)cn45)n3)cn2)CC1 [Compound 63] , the logged remaining activity at 1 µM turned out to be 26

Kindly note the recorded remaining activity at 1 µM for c1ccc(-c2ccc3ncc(-c4ccnc(Nc5ccc(N6CCC6)nc5)n4)n3c2)cc1 [Compound 25] , which is 100

Every entry's value here was drawn from patent US20240158391A1.
